Tested on: K-562 leukemia
Assay: NCI-60 one-dose screen, 48 h (100 = growth as untreated, 0 = no growth, -100 = all killed)
Conditions: 10 µM unless noted
About 83,000 compounds went through this panel and 20% of them were active in at least one assay; those are over-represented in the sample as a whole.
Would you mind labelling by growth? At or over 40% is MET, under is NOT MET.

MOLECULE: O=c1[nH]ccc2nc(N3CCC(O)CC3)nc(Nc3cccc(C(F)(F)F)c3)c12
LABEL_CLASS: MET
--
MOLECULE: Cc1cccc(CC(=O)c2ccccc2)n1
LABEL_CLASS: MET
--
MOLECULE: COc1cc(NC(C)CCCN2C(=O)c3ccccc3C2=O)c2nc(C)ccc2c1OC (stereo not drawn)
LABEL_CLASS: MET
--
MOLECULE: Nc1ncnc2c1c(-c1ccc(Oc3ccccc3)cc1)nn2C[C@H]1SSC[C@H]1O
LABEL_CLASS: NOT MET
--
MOLECULE: Cc1nccc2c3ccc(OCc4cn(-c5ccc(Br)cc5)nn4)cc3n(CCCc3ccccc3)c12
LABEL_CLASS: NOT MET
--
MOLECULE: Nc1ncc(-c2ccc3ncnc(Nc4ccc(F)c(Cl)c4)c3c2)cn1
LABEL_CLASS: MET
--
MOLECULE: O=C(/C=C/c1ccco1)c1cccc(Nc2nc(Nc3ccccc3)nc(Nc3ccccc3)n2)c1
LABEL_CLASS: MET
--
MOLECULE: O=C(Nc1ccc(-n2cc(-c3ccncc3)c(-c3ccc(O)c(Cl)c3)n2)cc1)c1cc(Cl)cc(Cl)c1
LABEL_CLASS: NOT MET
